Target: particulate guanylyl cyclase receptor A (pGC-A) (Homo sapiens, UniProt P16066)
Test: cGMP production by HTRF in HEK293 cells overexpressing pGC-A, with ANP
Details: HEK293 cells overexpressing pGC-A; test compound plus EC20 concentration of ANP; cGMP by HTRF
value_kind: EC50 (µM)

These solved cases illustrate the format of a correct answer.
Request: Short answer please: EC50, particulate guanylyl cyclase receptor A (pGC-A) (Homo sapiens, UniProt P16066), entry N[C@@H]1CCC[C@@H](C(=O)Nc2nc3c(F)cc(F)cc3s2)C1 [210T]
Response: 0.5

Request: Short answer please: EC50, particulate guanylyl cyclase receptor A (pGC-A) (Homo sapiens, UniProt P16066), entry O=C(Nc1nc2c(F)cc(F)cc2s1)C1CCCN(CCN2CCOCC2)C1 (stereo not shown) [compound 244]
Response: 0.28

P = CN1CCC(CN2CCCC(C(=O)Nc3nc4c(F)cc(F)cc4s3)C2)CC1 (stereo not shown) [compound 075]
Q = CN(C)CCN1CCCC(C(=O)Nc2nc3c(C#N)cccc3s2)C1 (stereo not shown) [compound 007]
R = CN(C)CCN1CCCC(C(=O)Nc2nc3c(Cl)cccc3s2)C1 (stereo not shown) [compound 225]
Request: Sort these molecules on EC50 so the largest reading comes first. Respond with an ordered listing of the labels, as requested.
Response: P, Q, R
(P: 1.5 µM, Q: 0.6 µM, R: 0.36 µM)

P = O=C(Nc1nc2c(F)cc(F)cc2s1)C1CNCC(O)C1 (stereo not shown) [compound 263]
Q = O=C(Nc1nc2c(F)cc(F)cc2s1)C1CCCN(CCn2cccn2)C1 (stereo not shown) [compound 067]
R = O=C(Nc1nc2c(F)cc(F)cc2s1)C1CNc2ccccc2C1 (stereo not shown) [compound 058]
S = CN1CCCCC1CN1CCCC(C(=O)Nc2nc3c(F)cc(F)cc3s2)C1 (stereo not shown) [compound 073]
Request: Sort these molecules on EC50 so the largest reading comes first. Respond with an ordered listing of the labels, as requested.
Response: R, P, Q, S

P = CN(C)CCN[C@@H]1CCCC[C@@H]1C(=O)Nc1nc2c(F)cc(F)cc2s1 [compound 211]
Q = O=C(Nc1nc2c(F)cc(F)cc2s1)C1CCCN(CCNCCO)C1 (stereo not shown) [compound 240]
Request: // compare measured EC50 between P and Q ; output the lower one Indicate your choice by writing its label.
Response: Q
(Q: 0.7 µM, P: 1.53 µM)

I = N[C@H]1CCC[C@H](C(=O)Nc2nc3c(F)cc(F)cc3s2)C1 [210C]
II = O=C(Nc1nc2c(F)cc(F)cc2s1)C1CCCN(CCN2CCCC2C(=O)O)C1 (stereo not shown) [compound 259]
Request: I or II : whose EC50 is greater? Indicate your choice by writing its label.
Response: I

P = CN1CCC(N2CCCC(C(=O)Nc3nc4c(F)cc(F)cc4s3)C2)C1=O (stereo not shown) [compound 097]
Q = O=C(Nc1nc2c(F)cc(F)cc2s1)C12CCC(CC1)NC2 [compound 062]
Request: P or Q : whose EC50 is greater? Indicate your choice by writing its label.
Response: Q

A = O=C1CCC(C(=O)Nc2nc3c(F)cc(F)cc3s2)CN1 (stereo not shown) [compound 222]
B = N[C@@H]1CCC[C@H](C(=O)Nc2nc3c(F)cc(F)cc3s2)C1 [compound 208]
Request: A or B : whose EC50 is greater? Indicate your choice by writing its label.
Response: A

A = CN1CCCC(CN2CCCC(C(=O)Nc3nc4c(F)cc(F)cc4s3)C2)C1 (stereo not shown) [compound 074]
B = CN(C)C(=O)N1CCCC(C(=O)Nc2nc3c(F)cc(F)cc3s2)C1 (stereo not shown) [compound 255]
C = CC(C)NC(=O)N1CCCC(C(=O)Nc2nc3c(F)cc(F)cc3s2)C1 (stereo not shown) [compound 278]
Request: Sort these molecules on EC50 so the largest reading comes first. Respond with an ordered listing of the labels, as requested.
Response: C, A, B

----------
Target: particulate guanylyl cyclase receptor A (pGC-A) (Homo sapiens, UniProt P16066)
Construct: expressed in transfected cells; host or cells: HEK293
Sequence (P16066 33-1061): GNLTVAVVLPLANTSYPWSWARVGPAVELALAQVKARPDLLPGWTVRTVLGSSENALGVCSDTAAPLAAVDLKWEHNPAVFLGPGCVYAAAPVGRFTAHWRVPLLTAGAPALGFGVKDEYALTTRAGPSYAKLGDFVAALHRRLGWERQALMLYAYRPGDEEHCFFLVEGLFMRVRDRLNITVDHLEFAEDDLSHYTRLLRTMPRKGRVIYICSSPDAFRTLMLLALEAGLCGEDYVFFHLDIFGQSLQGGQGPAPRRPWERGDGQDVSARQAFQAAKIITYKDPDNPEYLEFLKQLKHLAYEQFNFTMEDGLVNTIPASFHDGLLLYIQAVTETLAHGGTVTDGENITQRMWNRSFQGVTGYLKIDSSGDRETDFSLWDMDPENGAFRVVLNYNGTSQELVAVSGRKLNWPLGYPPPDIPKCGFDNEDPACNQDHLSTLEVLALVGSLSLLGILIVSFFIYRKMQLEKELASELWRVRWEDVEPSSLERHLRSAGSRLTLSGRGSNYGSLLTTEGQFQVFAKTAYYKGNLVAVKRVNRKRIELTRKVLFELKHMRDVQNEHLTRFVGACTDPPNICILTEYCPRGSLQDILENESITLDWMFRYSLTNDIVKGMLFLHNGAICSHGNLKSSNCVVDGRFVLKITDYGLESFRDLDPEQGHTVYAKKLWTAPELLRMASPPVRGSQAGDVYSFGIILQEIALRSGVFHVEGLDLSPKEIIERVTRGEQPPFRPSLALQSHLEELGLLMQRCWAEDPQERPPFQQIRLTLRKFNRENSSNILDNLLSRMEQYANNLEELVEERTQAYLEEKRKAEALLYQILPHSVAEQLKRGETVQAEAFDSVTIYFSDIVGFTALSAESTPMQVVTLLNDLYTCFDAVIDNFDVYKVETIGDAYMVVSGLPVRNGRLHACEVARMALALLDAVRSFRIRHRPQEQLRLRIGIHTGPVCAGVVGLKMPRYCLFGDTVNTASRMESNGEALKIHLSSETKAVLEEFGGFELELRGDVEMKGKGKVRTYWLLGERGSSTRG
Sequence (P01160 124-151 partner limits assumed): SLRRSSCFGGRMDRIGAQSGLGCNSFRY
Assay: cGMP production by HTRF in HEK293 cells overexpressing pGC-A, with ANP
Assay type: cell-based
Details: HEK293, HEK293 cells overexpressing pGC-A; cGMP normalized to maximal amount produced by an EC80 concentration of ANP; read-out: Max efficacy
value_kind: Emax (%)

A = CN(C)CCN[C@@H]1CCCCC1C(=O)Nc1nc2c(F)cc(F)cc2s1 (stereo partly drawn) [compound 211]
B = CN(C)CCN1CCCC(C(=O)Nc2nc3c(C#N)cccc3s2)C1 (stereo not drawn) [compound 007]
Request: // compare measured Emax between A and B ; output the lower one Indicate your choice by writing its label.
Response: B
(B: 41%, A: 101%)

P = Cc1cc(N2CCCC(C(=O)Nc3nc4c(F)cc(F)cc4s3)C2)ccn1 (stereo not drawn) [compound 105]
Q = CCN(CC)C(=O)N1CCCC(C(=O)Nc2nc3c(F)cc(F)cc3s2)C1 (stereo not drawn) [compound 276]
Request: P or Q : whose Emax is greater? Indicate your choice by writing its label.
Response: P

----------
Target: particulate guanylyl cyclase receptor A (pGC-A) (Homo sapiens, UniProt P16066)
Construct: expressed in transfected cells; host or cells: HEK293
Sequence (P16066 33-1061): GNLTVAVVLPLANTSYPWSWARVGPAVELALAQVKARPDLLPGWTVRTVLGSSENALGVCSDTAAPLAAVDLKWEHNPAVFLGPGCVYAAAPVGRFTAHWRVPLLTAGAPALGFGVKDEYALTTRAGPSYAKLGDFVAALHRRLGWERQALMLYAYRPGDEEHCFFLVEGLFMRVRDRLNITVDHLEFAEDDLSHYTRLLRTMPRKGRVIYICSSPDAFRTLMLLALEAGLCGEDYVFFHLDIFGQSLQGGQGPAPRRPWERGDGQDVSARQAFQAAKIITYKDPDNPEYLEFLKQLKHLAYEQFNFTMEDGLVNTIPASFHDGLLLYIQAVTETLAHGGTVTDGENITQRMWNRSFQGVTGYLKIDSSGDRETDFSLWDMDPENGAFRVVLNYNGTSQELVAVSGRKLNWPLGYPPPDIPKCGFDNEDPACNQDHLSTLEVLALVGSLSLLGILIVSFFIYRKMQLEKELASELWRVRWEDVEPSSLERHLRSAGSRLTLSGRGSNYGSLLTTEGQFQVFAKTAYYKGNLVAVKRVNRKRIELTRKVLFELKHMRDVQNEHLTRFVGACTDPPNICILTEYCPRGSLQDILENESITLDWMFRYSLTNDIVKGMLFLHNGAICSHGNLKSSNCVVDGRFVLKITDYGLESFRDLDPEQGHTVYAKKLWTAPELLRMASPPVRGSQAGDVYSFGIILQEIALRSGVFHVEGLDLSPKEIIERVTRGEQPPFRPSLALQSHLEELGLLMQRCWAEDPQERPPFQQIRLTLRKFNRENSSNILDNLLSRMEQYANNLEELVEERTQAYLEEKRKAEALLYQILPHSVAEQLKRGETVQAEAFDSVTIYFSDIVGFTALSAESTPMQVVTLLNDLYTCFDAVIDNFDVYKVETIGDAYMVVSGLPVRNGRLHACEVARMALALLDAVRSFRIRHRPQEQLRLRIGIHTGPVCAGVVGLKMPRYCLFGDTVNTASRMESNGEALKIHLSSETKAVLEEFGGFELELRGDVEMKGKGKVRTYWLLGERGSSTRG
Sequence (P01160 124-151 partner limits assumed): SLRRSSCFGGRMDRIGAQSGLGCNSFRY
Assay: cGMP production by HTRF in HEK293 cells overexpressing pGC-A, with ANP
Format: cell-based
Settings: HEK293 cells overexpressing pGC-A; test compound plus EC20 concentration of ANP; cGMP by HTRF
value_kind: EC50 (µM)

Request: Short answer please: EC50, particulate guanylyl cyclase receptor A (pGC-A) (Homo sapiens, UniProt P16066), entry CN(C)CCN1CCCC(C(=O)Nc2nc3c(F)cccc3s2)C1 (stereo not drawn)
Response: 5.8

I = O=C(Nc1nc2c(F)cc(F)cc2s1)C1CCCN(C2CCCC2)C1 (stereo not drawn)
II = CNC(=O)N1CCCC(C(=O)Nc2nc3c(F)cc(F)cc3s2)C1 (stereo not drawn)
Request: I or II : whose EC50 is greater? Indicate your choice by writing its label.
Response: II
